Test: HepG2 cell viability effects, profiling panel, calcein-AM fluorescence, 48 h, basal (AID 1164); further: test concentration not given here
Settings: higher = more signal
reported.metric: z-score

Record excerpt, results attached:
[
  {
    "compound": "COCCOC(=O)N1C(=O)[C@@]2(c3cc(C#CC4=CCCCC4)ccc31)[C@H](c1ccccc1OCCO)N1[C@H](c3ccccc3)[C@H](c3ccccc3)OC(=O)[C@H]1[C@@H]2C(N)=O",
    "z-score": -2.29
  },
  {
    "compound": "C=CCC(OC(C)=O)[C@@H]1[C@@H](N(Cc2ccc(-c3ccccc3)cc2)C(=O)c2cccc3ccccc23)c2cc(OCCCO)ccc2N1C(=O)c1ccc2ccccc2c1 (stereo partly drawn)",
    "z-score": 0.833
  }
]

Here's the next entry for you.
[in] Indicate the recorded z-score value for this compound: [N-]=[N+]=NCc1ccccc1[C@@H]1OC(c2ccc(OCCCO)cc2)=N[C@]1(Cc1ccccc1)C(=O)NCc1ccccc1
[out] 0.293
